Target: T1, Human NRP-1 His (human, UniProt O14786 22-856)
T1 construct: Recombinant monomeric protein; Biotinylated in the MSD-SET assay; also called hNRP-1; not shown: His tag
T1 sequence (O14786 22-856 V179A limits assumed): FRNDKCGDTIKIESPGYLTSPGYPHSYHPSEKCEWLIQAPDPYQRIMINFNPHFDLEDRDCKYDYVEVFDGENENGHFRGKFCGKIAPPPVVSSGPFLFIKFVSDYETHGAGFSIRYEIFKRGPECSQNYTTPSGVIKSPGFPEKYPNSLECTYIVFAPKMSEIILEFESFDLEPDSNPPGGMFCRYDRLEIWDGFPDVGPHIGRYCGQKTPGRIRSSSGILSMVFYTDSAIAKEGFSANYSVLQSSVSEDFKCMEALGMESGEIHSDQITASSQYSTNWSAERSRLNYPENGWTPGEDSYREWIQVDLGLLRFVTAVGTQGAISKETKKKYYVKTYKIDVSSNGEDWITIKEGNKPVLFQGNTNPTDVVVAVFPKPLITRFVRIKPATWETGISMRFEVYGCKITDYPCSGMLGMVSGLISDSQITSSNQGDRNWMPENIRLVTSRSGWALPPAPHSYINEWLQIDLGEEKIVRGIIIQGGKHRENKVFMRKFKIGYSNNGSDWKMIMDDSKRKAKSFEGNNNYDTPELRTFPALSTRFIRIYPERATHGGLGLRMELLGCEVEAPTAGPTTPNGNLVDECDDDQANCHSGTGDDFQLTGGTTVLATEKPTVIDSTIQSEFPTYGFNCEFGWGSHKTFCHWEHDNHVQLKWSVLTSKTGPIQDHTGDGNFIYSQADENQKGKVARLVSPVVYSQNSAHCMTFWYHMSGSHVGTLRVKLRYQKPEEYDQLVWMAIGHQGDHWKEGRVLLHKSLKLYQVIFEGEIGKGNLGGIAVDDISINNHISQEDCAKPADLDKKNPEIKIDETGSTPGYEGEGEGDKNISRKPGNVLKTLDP
Test: BLI ForteBio, IgG1 N297A on AHQ sensor, 100 nM monomeric antigen, 1:1 fit
Consider the following binders and their measured Kd readings.
Numeric only. Scale: nM

Recorded Kd, per entry:
[
  {
    "BINDER": "MAB5 (antibody, V domains shown) VH: QVQLVQSGAEVKKPGASVKVSCKASGYTFTSYYMHWVRQAPGQGLEWMGIINPQGGDTSYAQKFQGRVTMTRDTSTSTVYMELSSLRSEDTAVYYCARDRGMYYASGFGPWGQGTLVTVSS VL: EIVMTQSPGTLSLSPGERATLSCRASQSVSSSYLAWYQQKPGQAPRLLIYGASNRATGIPDRFSGSGSGTDFTLTISRLEPEDFAVYYCQQLSSFPITFGGGTKVEIK",
    "OUTCOME_MEASURE": "Kd",
    "QUANTITATIVE_READOUT": 3.23
  },
  {
    "BINDER": "MAB6 (antibody, V domains shown) VH: QVQLVQSGAKVKKPGASVKVSCKASGYTFTSYYMHWVRQVPGQGLEWMGIINPQGGDTSYAQKFQGRVTMTRDTSTSTVYMELSSLRSEDTAVYYCARDRGMYYASGFNPWGQGTLVTVSS VL: EIVMTQSPGTLSLSPGERATLSCRASQSVSSSYLAWYQQKPGQAPRLLIYGASNRATGIPDRFSGSGSGTDFTLTISRLEPEDFAVYYCQQLSSFPITFGGGTKVEIK",
    "OUTCOME_MEASURE": "Kd",
    "QUANTITATIVE_READOUT": 4.72
  },
  {
    "BINDER": "MAB4 (antibody, V domains shown) VH: QVQLVQSGAEVKKPGASVKVSCKASGYTFSRYYMHWVRQAPGQGLEWMGIINPLGGSTLYAQKFQGRVTMTRDTSTSTVYMELSSLRSEDTAVYYCARDLGYYGSGMHVWGQGTLVTVSS VL: DIQMTQSPSSVSASVGDRVTITCRASQGISRWLAWYQQKPGKAPKLLIYAASSLQSGVPSRFSGSGSGTDFTLTISSLQPEDFATYYCQQANLLPFTFGGGTKVEIK",
    "OUTCOME_MEASURE": "Kd",
    "QUANTITATIVE_READOUT": 0.851
  },
  {
    "BINDER": "MAB2 (antibody, V domains shown) VH: QVQLVQSGAEVKKPGASVKVSCKASGYTFRSYYMLWVRQAPGQGLEWMGIIDPSDGSTSYAQKFQGRVTMTRDASTSTVYMELSSLRSEDTAVYYCARGARRITGYGMDVWGQGTTVIVSS VL: DIQMTQSPSSVSASVGDRVTITCRASQGISSWLAWYQQKPGKAPKLLIYAASNLQSGVPSRFSGSGSGTDFTLTISSLQPEDFATYYCQQASVFPFTFGGGTKVEIK",
    "OUTCOME_MEASURE": "Kd",
    "QUANTITATIVE_READOUT": 1.86
  },
  {
    "BINDER": "MAB9 (antibody, V domains shown) VH: EVQLLESGGGLVQPGGSLRLSCAASGFTFKSYAMVWVRQAPGKGLEWVSIISGSGGATYYADSVKGRFTISRDNSKNTLYLQMNSLRAEDTAVYYCAKDPGYDSSRYYYSNYGMDVWGQGTTVTVSS VL: DIQMTQSPSSLSASVGDRVTITCRASQSISSYLNWYQQKPGKAPKLLIYGASSLQSGVPSRFSGSGSGTDFTLTISSLQPEDFATYYCQQTYSLYTFGGGTKVEIK",
    "OUTCOME_MEASURE": "Kd",
    "QUANTITATIVE_READOUT": 0.645
  }
]

Prompt: Output measured Kd for this item: MAB7 (antibody, V domains shown) VH: EVQLVESGGGLVQPGGSLRLSCAASGFTFSSYWMEWVRQAPGKGLEWVARIKRDGSEKYYVDSVKGRFTISRDNAKNSLYLQMNSLRAEDTAVYYCARDQGYKTPTDFDLWGRGTLVTVSS VL: DIQMTQSPSSLSASVGDRVTITCQASQDITNYLNWYQQKPGKAPKLLIYDASNLETGVPSRFSGSGSGTDFTFTISSLQPEDIATYYCQQSDVLPITFGGGTKVEIK
Response: 11.2

Prompt: // Input: MAB12 (antibody, V domains shown) VH: EVQLLESGGGLVQPGGSLRLSCAASGFTFSSVAMVWVRQAPGKGLEWVSAISGSGGATYYADSVEGRFTISRDNSKNTLYLQMNSLRAEDTAVYYCAKDPGYDSSRYYYSNYGMDVWGQGTTVTVSS VL: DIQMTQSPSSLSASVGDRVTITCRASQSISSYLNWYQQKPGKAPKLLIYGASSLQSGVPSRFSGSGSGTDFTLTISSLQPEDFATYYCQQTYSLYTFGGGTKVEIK . Output its Kd only.
Response: 0.481

Prompt: Given MAB3 (antibody, V domains shown) VH: QAQLVQSGAEVKKPGASVKVSCKASGYTFSRYYMHWVRQAPGQGLEWMGIINPLGGSTLYAQKFQGRVTMTRDTSTSTVYMELSSLRSEDTAVYYCARDLGYYGSGMHAWGQGTLVTVSS VL: DIQMTQSPSSVSASVGDRVTITCRASQGISRWLAWYQQKPGKAPKLLIYAASSLQSGVPSRFSGSGSGTDFTLTISSLQPEDFATYYCQQANLLPFTFGGGTKVEIK , respond with its Kd.
Response: 1.08

Prompt: Give reported Kd value for MAB1 (antibody, V domains shown) VH: QVQLVQSGAGVKKPGASVKVSCKASGYTFRSYYMLWVRQAPGQGLEWMGIIDPSDGSTSYAQKFQGRVTMTRDTPTSTVYMELSSLRSEDTAVYYCARGARRITGYGMDVWGQGTTVTVSS VL: DIQMTQSPSSVSASVGDRVTITCRASQGISSWLAWYQQKPGKAPKLLIYAASNLQSGVPSRFSGSGSGTDFTLTISSLQPEDFATYYCQQASVFPFTFGGGTKVEIK
Response: 1.87

Prompt: Dear colleague, please send me the reported Kd for MAB13 (antibody, V domains shown) VH: QVQLQQWGAGLLKPSETLSLTCAVYGGSFRGYYWEWIRQPPGKGLEWIGEISHSGSTNYNPSLKSRVTISVDTSKNQFSLKLSSVTAADTAVYYCARARPYREPYGMDVWGQGTTVTVSS VL: DIQLTQSPSSVSASVGDRVTITCRASQDISSWLAWYQQKPGKAPKLLIYAASSLQSGVPSRFSGSGSGTDFTLTISSLQPEDFATYYCQQELAFPRTFGGGTKVEIK when you can.
Response: 1.41
